# Test system: HT29 colon
# assay: NCI-60 one-dose screen, 48 h (100 = growth as untreated, 0 = no growth, -100 = all killed)
# test-parameters: 10 µM unless noted
Compounds without any hit were thinned out: in the full panel of roughly 83,000, 20% have a hit.
Recorded growth for the following compounds
Give the value in % but do not write % after it.

Solved entries (count: 3):
Report measured growth; entry is `Cn1cc(-c2cc3nc(-c4c[nH]c5ccccc45)cc(N)n3n2)c2ccccc21` -65.3

Report measured growth; entry is `Cn1cc(Nc2ncnc(-c3ccc(N4CCCC4)c(C#N)c3)n2)cn1` 74.6

Report measured growth; entry is `O=C(CSc1nnc(-c2ccc(-c3nc4ccccc4[nH]3)cc2)o1)Nc1ccc(Cl)cc1` 26.6

Continuing:
Report measured growth; entry is `COc1cccc(-c2ccc(/C=N/NC(=O)c3[nH]c4ccc(Br)cc4c3-c3ccccc3)s2)c1` -32.2

Report measured growth; entry is `OC(c1ccccc1)(c1ccccc1)C1CCN(c2ccc3nnc(Cl)n3n2)CC1` 26.8

Report measured growth; entry is `Cc1ccc2nc(COc3ccc(C(=O)NNC(=O)Nc4ccc(Cl)c(C(F)(F)F)c4)cc3)[nH]c2c1` 75.9

Report measured growth; entry is `O=C(COc1ccc(/C=C2/C(=O)Nc3ccc(Cl)cc32)cc1)Nc1ccc(Br)cc1` -51.3

Report measured growth; entry is `CCOc1ccc(-c2cc(-c3cc(C(C)C)c(O)cc3C)nn2-c2ccc(S(N)(=O)=O)cc2)cc1` 98.5

Report measured growth; entry is COc1ccc2c(c1)C(Sc1ccc(Cl)cc1)c1c(nc(N)c(C#N)c1N)O2 (centres undefined) 75.2

---

Recorded growth for the following compounds
# Test system: HS 578T breast
# assay: NCI-60 one-dose screen, 48 h (100 = growth as untreated, 0 = no growth, -100 = all killed)
# test-parameters: 10 µM unless noted
The panel holds about 83,000 compounds, 20% with a hit somewhere; the sample as a whole holds those more often.
Give the value in % but do not write % after it.

Report measured growth; entry is `COc1ccc(-c2cc(C(=O)Oc3ccc(C=O)cc3OC)nn2-c2ccc(S(C)(=O)=O)cc2)cc1` 112

Continuing:
Report measured growth; entry is `COc1ccc(-c2nc3ccc(-c4nnc(SCc5ccccc5)o4)cc3[nH]2)cc1` -17.5

Report measured growth; entry is `COc1ccc2[nH]c(O)c(N=Nc3nc(-c4ccccc4)cs3)c2c1` 41.6

Report measured growth; entry is `COC(=O)c1cc(C(=O)CBr)n2c1ccc1c3ccccc3ccc12` 61

Report measured growth; entry is `O=C(N/N=C/c1ccc(Cl)o1)c1[nH]c2ccc(Br)cc2c1-c1ccccc1` 3.22

Report measured growth; entry is `COc1ccc(/C=C/C(=O)c2ccc(S(=O)(=O)NCCNc3nc(N(C)C)nc(N4CCOCC4)n3)cc2)cc1` 104

---

Recorded growth for the following molecules
# System: MDA-MB-468 breast
# assay: NCI-60 one-dose screen, 48 h (100 = growth as untreated, 0 = no growth, -100 = all killed)
# test-parameters: 10 µM unless noted
This is part of a sample that, as a whole, favours compounds with a hit. Of some 83,000 tested, about 20% had one in any assay.
Give the value in % but do not write % after it.

Report measured growth; entry is `COc1ccc2[nH]c(O)c(N=Nc3nc(-c4ccc(Br)cc4)cs3)c2c1` -7.45

Report measured growth; entry is `O=C(NN1C(=O)/C(=C/C=C/c2ccc([N+](=O)[O-])o2)SC1=S)c1ccncc1` -73.9

Report measured growth; entry is `O=C(N/N=C/c1ccsc1)c1[nH]c2ccc(Br)cc2c1-c1ccccc1` -25.6

Report measured growth; entry is CC1CCc2c(sc3nc(SCC(=O)c4cccc([N+](=O)[O-])c4)n(-c4ccccc4)c(=O)c23)C1 (stereo not given) 83

Report measured growth; entry is `C/C(=N\Nc1ccc(C(=O)O)cc1)c1cnn(-c2cc(=O)[nH]c3ccc(C)cc23)c1C` 83.2

Continuing:
Report measured growth; entry is `CCOc1ccccc1NC(=O)N/C(N)=N/c1nc2ccccc2s1` -11.4

Report measured growth; entry is `CC[C@]12C=CCN3CC[C@@]4(c5ccc(OC)cc5N(C)[C@H]4[C@@](O)(C(=O)OC)[C@@H]1OC(=O)CCCC[P+](c1ccc(F)cc1)(c1ccc(F)cc1)c1ccc(F)cc1)[C@@H]32` -74.6

Report measured growth; entry is `NS(=O)(=O)c1ccc(Nc2nc(SCC(=O)c3ccc(F)cc3)nc3ccccc23)cc1` 11.4

Report measured growth; entry is `COc1ccc2[nH]c(=O)c(CSc3ccccc3Nc3nccc(-c4ccc5c(c4)OCO5)n3)cc2c1` 66.5

Report measured growth; entry is `COC(=O)CSC1=C(C)C(=O)C(OC)=C(OC)C1=O` 52
